Let's look at some compounds and their measured tR.
# assay-overview: RP-HPLC retention time as measure of hydrophilicity/hydrophobicity
# Format: physicochemical
# assay-conditions: chromatographic, Cosmosil 5C18-AR-II 4.6 x 150 mm, linear gradient 30–70% MeCN/H2O (0.1% TFA) for 30 min, 1 mL/min, UV 220 nm
Starred links: 1 amine or outer side, 2 acyl side, 3 side chain; linkers in the order of their positions; H or OH if unused. Positions of bridges follow the written chain, without caps; N, C: chain ends. Non-standard residues stand in square brackets, D forms with d. Residues, ends and D or L forms follow the SMILES beside them. *: point of attachment. X3 = CCCCCCCCCCC(=O)N[C@H](C(=O)NC[C@@H](CC(=O)[*:1])N[*:2])[C@@H](C)O; X11 = CCCCCCCCNC(=O)[C@H](O)[C@@H](O)C(=O)NC[C@H](CC(=O)[*:1])N[*:2]; X6 = CCCCCCCCCCC(=O)N[C@@H](CO)C(=O)NC[C@@H](CC(=O)[*:1])N[*:2]; X7 = CCCCCCCCCCCC(=O)N[C@H](CO)C(=O)NC[C@@H](CC(=O)[*:1])N[*:2]; X1 = CCCCCCCCCCC(=O)N[C@H](CO)C(=O)NC[C@@H](CC(=O)[*:1])N[*:2]; X4 = CCCCCCCCCCCC(=O)N[C@H](CO)C(=O)NC[C@H](CC(=O)[*:1])N[*:2]; X8 = CCCCCCCCCCC(=O)N[C@H](CO)C(=O)NC[C@H](CC(=O)[*:1])N[*:2]; X9 = CCCCCCCCNC(=O)[C@H](O)[C@@H](O)C(=O)*; Undecanoyl = CCCCCCCCCCC(=O)*; Lauroyl = CCCCCCCCCCCC(=O)*; Orn = NCCC[C@H](N)C(=O)O
property-name: tR (min)

• CCCCCCCCCCC(=O)N[C@H](CO)C(=O)NC[C@H]1CC(=O)N[C@H](CO)C(=O)N[C@H](Cc2ccc(O)cc2)C(=O)N[C@H](CC(N)=O)C(=O)NCC(=O)N[C@@H](CC(N)=O)C(=O)N[C@@H](CO)C(=O)N[C@@H](CC(N)=O)C(=O)N1 [Compound 3g] ([dS][dY][dN]GNSN; linker N-C via X1) = 9.6
• CCCCCCCCCCCC(=O)N[C@H](CO)C(=O)NC[C@@H]1CC(=O)N[C@H](CO)C(=O)N[C@H](Cc2ccc(O)cc2)C(=O)N[C@H](CC(N)=O)C(=O)NCC(=O)N[C@@H](CC(N)=O)C(=O)N[C@@H](CO)C(=O)N[C@@H](CC(N)=O)C(=O)N1 [Compound 3d] ([dS][dY][dN]GNSN; linker N-C via X4) = 11.8
• CCCCCCCCCCCC(=O)N[C@@H](CO)C(=O)N[C@H]1CCCNC(=O)[C@H](CC(N)=O)NC(=O)[C@H](CO)NC(=O)[C@H](CC(N)=O)NC(=O)CNC(=O)[C@@H](CC(N)=O)NC(=O)[C@@H](Cc2ccc(O)cc2)NC(=O)[C@@H](CO)NC1=O [Compound 6b] (Lauroyl-S[Orn][dS][dY][dN]GNSN; lactam 2-C) = 12.1
• CCCCCCCCCCC(=O)N[C@H](C(=O)N[C@H]1CCCNC(=O)[C@H](CC(N)=O)NC(=O)[C@H](CO)NC(=O)[C@H](CC(N)=O)NC(=O)CNC(=O)[C@@H](CC(N)=O)NC(=O)[C@@H](Cc2ccc(O)cc2)NC(=O)[C@@H](CO)NC1=O)[C@@H](C)O [Compound 7] (Undecanoyl-T[Orn][dS][dY][dN]GNSN; lactam 2-C) = 10.6
• CCCCCCCCCCC(=O)N[C@H](C(=O)NC[C@H]1CC(=O)N[C@H](CO)C(=O)N[C@H](Cc2ccc(O)cc2)C(=O)N[C@H](CC(N)=O)C(=O)NCC(=O)N[C@@H](CC(N)=O)C(=O)N[C@@H](CO)C(=O)N[C@@H](CC(N)=O)C(=O)N1)[C@@H](C)O [Compound 4b] ([dS][dY][dN]GNSN; linker N-C via X3) = 10.7
• CCCCCCCCCCC(=O)N[C@@H](CO)C(=O)NC[C@H]1CC(=O)N[C@H](CO)C(=O)N[C@H](Cc2ccc(O)cc2)C(=O)N[C@H](CC(N)=O)C(=O)NCC(=O)N[C@@H](CC(N)=O)C(=O)N[C@@H](CO)C(=O)N[C@@H](CC(N)=O)C(=O)N1 [Compound 3e] ([dS][dY][dN]GNSN; linker N-C via X6) = 9.4
• CCCCCCCCCCCC(=O)N[C@H](CO)C(=O)NC[C@H]1CC(=O)N[C@H](CO)C(=O)N[C@H](Cc2ccc(O)cc2)C(=O)N[C@H](CC(N)=O)C(=O)NCC(=O)N[C@@H](CC(N)=O)C(=O)N[C@@H](CO)C(=O)N[C@@H](CC(N)=O)C(=O)N1 [Compound 3h] ([dS][dY][dN]GNSN; linker N-C via X7) = 11.8
• CCCCCCCCCCC(=O)N[C@H](CO)C(=O)NC[C@@H]1CC(=O)N[C@H](CO)C(=O)N[C@H](Cc2ccc(O)cc2)C(=O)N[C@H](CC(N)=O)C(=O)NCC(=O)N[C@@H](CC(N)=O)C(=O)N[C@@H](CO)C(=O)N[C@@H](CC(N)=O)C(=O)N1 [Compound 3c] ([dS][dY][dN]GNSN; linker N-C via X8) = 9.4
• CCCCCCCCNC(=O)[C@H](O)[C@@H](O)C(=O)N[C@H]1CCCNC(=O)[C@H](CC(N)=O)NC(=O)[C@H](CO)NC(=O)[C@H](CC(N)=O)NC(=O)CNC(=O)[C@@H](CC(N)=O)NC(=O)[C@@H](Cc2ccc(O)cc2)NC(=O)[C@@H](CO)NC1=O [Compound 8] (X9-[Orn][dS][dY][dN]GNSN; lactam 1-C) = 5.8
• CCCCCCCCCCCC(=O)N[C@H](CO)C(=O)N[C@H]1CCCNC(=O)[C@H](CC(N)=O)NC(=O)[C@H](CO)NC(=O)[C@H](CC(N)=O)NC(=O)CNC(=O)[C@@H](CC(N)=O)NC(=O)[C@@H](Cc2ccc(O)cc2)NC(=O)[C@@H](CO)NC1=O [Compound 6d] (Lauroyl-[dS][Orn][dS][dY][dN]GNSN; lactam 2-C) = 11.2
• CCCCCCCCNC(=O)[C@H](O)[C@@H](O)C(=O)NC[C@@H]1CC(=O)N[C@H](CO)C(=O)N[C@H](Cc2ccc(O)cc2)C(=O)N[C@H](CC(N)=O)C(=O)NCC(=O)N[C@@H](CC(N)=O)C(=O)N[C@@H](CO)C(=O)N[C@@H](CC(N)=O)C(=O)N1 [Compound 5a] ([dS][dY][dN]GNSN; linker N-C via X11) = 5.3
• CCCCCCCCCCC(=O)N[C@@H](CO)C(=O)N[C@H]1CCCNC(=O)[C@H](CC(N)=O)NC(=O)[C@H](CO)NC(=O)[C@H](CC(N)=O)NC(=O)CNC(=O)[C@@H](CC(N)=O)NC(=O)[C@@H](Cc2ccc(O)cc2)NC(=O)[C@@H](CO)NC1=O [Compound 6a] (Undecanoyl-S[Orn][dS][dY][dN]GNSN; lactam 2-C) = 9.7
